FYI, the data here is from paper PMC10868801.

- measurement_target: SYK-tSH2 / FCER1G p-ITAM interaction (Homo sapiens, UniProt P43405)
- Construct: the tSH2 domain of SYK (residues M6-N269) fused to an N-terminal 6×His tag; made in house; host or cells: E. coli BL21(DE3)-R3-pRARE
- experiment: TR-FRET assay of 6xHis-SYK-tSH2 with FITC-labeled FCER1G p-ITAM peptide
- Type: biochemical
- stated_conditions: competition of FITC-labeled FCER1G p-ITAM peptide by unlabeled peptide
pIC50: −log10 of the molar value. Primed or numbered codes have the meaning given here. No end group written: not given here. FITC′ = not defined here
reported_endpoint: pIC50

Q: With SYK-tSH2 / FCER1G p-ITAM interaction (Homo sapiens, UniProt P43405) as the test system, provide measured pIC50 for this substance: non-phosphorylated FCER1G ITAM peptide: non-phosphorylated FCER1G ITAM peptide used as control (DGVYTGLSTRNQETYETLKH-{FITC′})
Ans: < 6.00

----------
- experiment: Compound solubility with nephelometer
- Format: physicochemical
- stated_conditions: aqueous buffer, kinetic from dmso stock, PBS, 90 min at room temperature
reported_endpoint: solubility at 90 min (µM)
Answer format: numeric, µM implied, no suffix.

Q: For the molecule O=c1cc(CO)oc(C(Nc2ccccn2)c2ccc(F)cc2)c1O (centres unmarked) , give its measured solubility at 90 min value.
Ans: 100

Q: For the molecule O=c1cc(CO)oc(C(Nc2ccccn2)c2ccc3c(c2)OCO3)c1O (centres unmarked) , give its measured solubility at 90 min value.
Ans: 100
